assay: chemical genetic growth profiling, strain panel (AID 1159580);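 note: tested at 20 µM; growth read once vehicle control cultures reached saturation at 30 °C; 1 = growth at the plate median or of vehicle wells; lower values mean less growth of the strain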; conditions: S. cerevisiae deletion strains, growth OD, locus YGL086W, strain mad1
The campaign covered roughly 5,500 compounds. About 2,000 (36%) were called active. About 18% were inconclusive and are not listed. Cut-off read from the data, not from the text of the source: active = normalized growth mostly below about 0.91 (no sharp cut-off); inconclusive = no clear call, values can overlap the other calls; inactive = mostly above about 0.92. Some of the results follow.
Possible outcomes: 1 = active, 0 = inactive

[
  {
    "MOLECULE": "COc1cc(C)c(C(=O)Oc2cc(C)c(C(=O)O)c(O)c2C)c(OC)c1C",
    "CLASS": 0
  },
  {
    "MOLECULE": "O=c1cc(-c2ccccc2)oc2cc(O)cc(O)c12",
    "CLASS": 1
  },
  {
    "MOLECULE": "CC(CN(C)C)CN1c2ccccc2Sc2ccccc21 (stereo unspecified)",
    "CLASS": 0
  },
  {
    "MOLECULE": "O=c1cc(-c2ccccc2)oc2cc(O)c(O)c(O)c12",
    "CLASS": 1
  },
  {
    "MOLECULE": "CC(CN1c2ccccc2Sc2ccccc21)N(C)C (stereo unspecified)",
    "CLASS": 0
  },
  {
    "MOLECULE": "CC(=O)O[C@H]1C[C@@H](OC(C)=O)C(C)(C)C2CC(=O)[C@]3(C)C(CC[C@@]4(C)[C@H](c5ccoc5)OC(=O)[C@H]5O[C@]543)[C@]21C (stereo partly specified)",
    "CLASS": 0
  },
  {
    "MOLECULE": "O=c1cc(-c2cc(O)c(O)c(O)c2)oc2cc(O)cc(O)c12",
    "CLASS": 0
  },
  {
    "MOLECULE": "CC(CN1c2ccccc2Sc2cccnc21)N(C)C (stereo unspecified)",
    "CLASS": 0
  },
  {
    "MOLECULE": "CC(CN(C)C)CN1c2ccccc2CCc2ccccc21 (stereo unspecified)",
    "CLASS": 0
  },
  {
    "MOLECULE": "COC(=O)c1c(C)cc(OC(=O)c2c(C)c(Cl)c(O)c(C=O)c2O)c(C)c1O",
    "CLASS": 0
  },
  {
    "MOLECULE": "Cc1cc(=O)oc2c(O)c(O)ccc12",
    "CLASS": 0
  }
]

====

assay: chemical genetic growth profiling, strain panel (AID 1159580);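 note: tested at 20 µM; growth read once vehicle control cultures reached saturation at 30 °C; 1 = growth at the plate median or of vehicle wells; lower values mean less growth of the strain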; settings: S. cerevisiae deletion strains, growth OD, locus YIL066C, strain RNR3, active compounds read low
About 2,000 (36%) of roughly 5,500 compounds were called active. Another 18% or so got no clear call; they are omitted. The list shows a part of the results.
We begin with a simple list: items and their reported normalized growth.
ASSAY_ENDPOINT: normalized growth

[
  {
    "COMPOUND": "CC(CCC(=O)O)[C@H]1CCC2C3C(C[C@H](O)[C@@]21C)[C@@]1(C)CC[C@@H](O)C[C@H]1C[C@H]3O (some centres not stated)",
    "ASSAY_VALUE": 1
  },
  {
    "COMPOUND": "Cc1nc2sccn2c(=O)c1CCN1CCC(=C(c2ccc(F)cc2)c2ccc(F)cc2)CC1",
    "ASSAY_VALUE": 0.571
  },
  {
    "COMPOUND": "NC(N)=NCCC[C@@H](NC(=O)[C@@H](N)Cc1ccc(O)cc1)C(=O)O",
    "ASSAY_VALUE": 1.01
  },
  {
    "COMPOUND": "COc1ccc(C(=O)N2CCCC2=O)cc1",
    "ASSAY_VALUE": 0.986
  },
  {
    "COMPOUND": "CCCC(C(=O)OCCN(CC)CC)(c1ccccc1)c1ccccc1",
    "ASSAY_VALUE": 0.987
  },
  {
    "COMPOUND": "Cc1cc(O)c(C)c2c1C(=O)Oc1c(C)c(O)c(C(=O)O)c(C)c1O2",
    "ASSAY_VALUE": 0.988
  },
  {
    "COMPOUND": "CC[C@H](CCC(C)[C@H]1CCC2C3CCC4C[C@@H](O)CC[C@]4(C)C3CC[C@@]21C)C(C)C (some centres not stated)",
    "ASSAY_VALUE": 1.01
  },
  {
    "COMPOUND": "CC(C)CCCC(C)C1CCC2C3CC[C@H]4CCCC[C@]4(C)C3CC[C@]12C (some centres not stated)",
    "ASSAY_VALUE": 0.974
  },
  {
    "COMPOUND": "CCCC(CCC)C(=O)O",
    "ASSAY_VALUE": 0.992
  },
  {
    "COMPOUND": "CO[C@]12C[C@@H](COC(=O)c3cncc(Br)c3)CN(C)[C@@H]1Cc1cn(C)c3cccc2c13",
    "ASSAY_VALUE": 1
  },
  {
    "COMPOUND": "CCCCSP(=O)(SCCCC)SCCCC",
    "ASSAY_VALUE": 1.02
  },
  {
    "COMPOUND": "C[C@H](N)[C@H](O)c1ccccc1",
    "ASSAY_VALUE": 1
  },
  {
    "COMPOUND": "O=C(O)c1ccccc1C(=O)Nc1ccc(S(=O)(=O)Nc2nccs2)cc1",
    "ASSAY_VALUE": 1.01
  },
  {
    "COMPOUND": "COC(=O)CCC(C)[C@H]1CCC2C3C(C[C@H](O)[C@@]21C)[C@@]1(C)CC[C@@H](O)C[C@H]1C[C@H]3O (some centres not stated)",
    "ASSAY_VALUE": 1.01
  },
  {
    "COMPOUND": "Cc1cc(O)c(C=O)c2c1C(=O)Oc1c(C)c(O)c3c(c1O2)C(O)OC3=O (configuration not stated)",
    "ASSAY_VALUE": 0.962
  },
  {
    "COMPOUND": "NNCCc1ccccc1",
    "ASSAY_VALUE": 0.978
  },
  {
    "COMPOUND": "CCCCCC1C(=O)CCC1CC(=O)OC (configuration not stated)",
    "ASSAY_VALUE": 1
  },
  {
    "COMPOUND": "C[C@@H](N)[C@@H](O)c1ccccc1",
    "ASSAY_VALUE": 0.966
  },
  {
    "COMPOUND": "COC(=O)CCCOc1ccc(Cl)cc1Cl",
    "ASSAY_VALUE": 0.993
  },
  {
    "COMPOUND": "CN(C(=O)CN(CCO)CC(=O)N(C)C(C)(C)Cc1ccccc1)C(C)(C)Cc1ccccc1",
    "ASSAY_VALUE": 0.996
  },
  {
    "COMPOUND": "c1ccc2c(c1)CN1CCCC1=N2",
    "ASSAY_VALUE": 1.01
  },
  {
    "COMPOUND": "CC(CCC(=O)O)[C@H]1CCC2C3CC[C@@H]4C[C@H](O)CC[C@]4(C)C3CC[C@@]21C (some centres not stated)",
    "ASSAY_VALUE": 0.79
  },
  {
    "COMPOUND": "CN1CCN(C2=Nc3ccccc3Oc3ccc(Cl)cc32)CC1",
    "ASSAY_VALUE": 0.971
  },
  {
    "COMPOUND": "CC(CCC(=O)O)[C@H]1CCC2C3CC[C@@H]4CCCC[C@]4(C)C3CC[C@@]21C (some centres not stated)",
    "ASSAY_VALUE": 0.992
  },
  {
    "COMPOUND": "COc1cc2c(cc1O)C(Cc1ccc(O)cc1)N(C)CC2 (configuration not stated)",
    "ASSAY_VALUE": 1.03
  },
  {
    "COMPOUND": "CCC(=O)Nc1ccc(Cl)c(Cl)c1",
    "ASSAY_VALUE": 0.991
  },
  {
    "COMPOUND": "COC(=O)CCC(C)C1CCC2C3CC[C@@H]4C[C@H](O)CC[C@]4(C)C3C[C@H](O)[C@]12C (some centres not stated)",
    "ASSAY_VALUE": 0.923
  },
  {
    "COMPOUND": "CC(CCC(=O)O)[C@H]1CCC2C3C[C@H](O)[C@@H]4C[C@H](O)CC[C@]4(C)C3CC[C@@]21C (some centres not stated)",
    "ASSAY_VALUE": 1
  },
  {
    "COMPOUND": "CN(C)CCOC(=O)COc1ccc(Cl)cc1",
    "ASSAY_VALUE": 1.04
  },
  {
    "COMPOUND": "CC1(C)C(=O)C=C[C@@]2(C)C1CC(=O)[C@@]1(C)C3=CC(=O)O[C@@H](c4ccoc4)[C@]3(C)CCC12 (some centres not stated)",
    "ASSAY_VALUE": 1.01
  },
  {
    "COMPOUND": "COc1cc(C(=O)O)c2c(c1C)OC(=O)c1c(C)cc(O)c(C=O)c1O2",
    "ASSAY_VALUE": 0.998
  },
  {
    "COMPOUND": "CC(=O)OCC(=O)[C@@]1(O)[C@H](OC(C)=O)CC2C3CCC4=CC(=O)C=C[C@]4(C)[C@@]3(F)[C@@H](O)C[C@@]21C (some centres not stated)",
    "ASSAY_VALUE": 0.981
  },
  {
    "COMPOUND": "C[C@H](CCC(=O)O)[C@H]1CCC2C3C(CC[C@@]21C)[C@@]1(C)CC[C@@H](O)C[C@H]1C[C@H]3O (some centres not stated)",
    "ASSAY_VALUE": 1.03
  },
  {
    "COMPOUND": "NS(=O)(=O)c1cc2c(cc1Cl)NC(C1CC3C=CC1C3)NS2(=O)=O (configuration not stated)",
    "ASSAY_VALUE": 0.989
  },
  {
    "COMPOUND": "CCCCC[C@H](CC(=O)NO)C(=O)N[C@H](C(=O)N1CCC[C@H]1CO)C(C)C",
    "ASSAY_VALUE": 0.999
  },
  {
    "COMPOUND": "NC(N)=NCCCC(NC(=O)C(N)Cc1ccc(O)cc1)C(=O)O (configuration not stated)",
    "ASSAY_VALUE": 1.01
  },
  {
    "COMPOUND": "CC(=O)O[C@H]1CC[C@]2(C)C3=CC(=O)[C@@]4(C)C(C[C@@H]5OC6(OCC(C)CC6Br)[C@@H](C)[C@@H]54)C3CC[C@H]2C1 (some centres not stated)",
    "ASSAY_VALUE": 1
  },
  {
    "COMPOUND": "CNC(=O)Oc1ccc2c(c1)[C@]1(C)CCN(C)[C@@H]1N2C",
    "ASSAY_VALUE": 1
  },
  {
    "COMPOUND": "CC1CCC2(OC1)OC1CC3C4CCC5C[C@@H](O)CCC5(C)C4=CCC3(C)C1[C@@H]2C (some centres not stated)",
    "ASSAY_VALUE": 1
  },
  {
    "COMPOUND": "NC(N)=O",
    "ASSAY_VALUE": 1.01
  },
  {
    "COMPOUND": "Nc1ccncc1",
    "ASSAY_VALUE": 1.03
  },
  {
    "COMPOUND": "Clc1ccc2c(c1)C(N1CCNCC1)=Nc1ccccc1O2",
    "ASSAY_VALUE": 0.978
  }
]
